Test: Volume of distribution at steady state in Wistar rat at 5 mg/kg, iv or 20 mg/kg, po
Assay type: ADME, organism-based
Conditions: in vivo, read-out: Vdss

>  <Smiles code>
CCOc1cc2ncc(-c3cc(N)nc(F)c3)n2cc1S(=O)(=O)C(C)C

>  <Unit abbrev>
L/kg

>  <Vd>
1.6

$$$$

* * *

Experiment: Cmax in CD-1 mouse at 10 mg/kg, po
Format: ADME, organism-based
Design: dose 10 mg/kg, route oral
Conditions: in vivo

>  <Smiles code>
CCOc1cc2ncc(-c3cc(N)nc(F)c3)n2cc1S(=O)(=O)C(C)C

>  <Cmax>
3.89 µM

$$$$

* * *

Assay: Clearance in Beagle dog at 0.5 mg/kg, iv or 2 mg/kg, po
Assay type: ADME, organism-based, Canis lupus familiaris
Details: in vivo

>  <Smiles code>
CCOc1cc2ncc(-c3cc(N)nc(F)c3)n2cc1S(=O)(=O)C(C)C

>  <clearance>
7.8 mL/min/kg

$$$$

* * *

Assay: Half life in CD-1 mouse at 2 mg/kg, iv or 10 mg/kg, po
Assay type: ADME, organism-based
Settings: in vivo

>  <Smiles code>
CCOc1cc2ncc(-c3cc(N)nc(F)c3)n2cc1S(=O)(=O)C(C)C

>  <half-life>
1 h

$$$$

* * *

Assay: Volume of distribution at steady state in Beagle dog at 0.5 mg/kg, iv or 2 mg/kg, po
Type: ADME, organism-based, Canis lupus familiaris
Conditions: in vivo, read-out: Vdss

>  <Smiles code>
CCOc1cc2ncc(-c3cc(N)nc(F)c3)n2cc1S(=O)(=O)C(C)C

>  <Vd [L/kg]>
2

$$$$

* * *

Assay: AUC in Wistar rat at 5 mg/kg, iv
Assay type: ADME, organism-based
Conditions: in vivo

>  <Smiles code>
CCOc1cc2ncc(-c3cc(N)nc(F)c3)n2cc1S(=O)(=O)C(C)C

>  <Unit abbrev>
µM·h

>  <AUC>
17.5

$$$$

* * *

Experiment: Bioavailability in CD-1 mouse
Type: ADME, organism-based
Details: in vivo

>  <Smiles code>
COc1cc2ncc(-c3cc(N)nc(Cl)c3)n2cc1S(=O)(=O)C(C)(C)C

>  <bioavailability / %>
81

$$$$
>  <Smiles code>
COc1cc2ncc(-c3cc(O)cc(Cl)c3)n2cc1S(=O)(=O)C(C)(C)C

>  <bioavailability / %>
0

$$$$
>  <Smiles code>
COc1cc2ncc(-c3ccc(O)c(Cl)c3)n2cc1S(=O)(=O)C(C)(C)C

>  <bioavailability / %>
2

$$$$

* * *

Assay: AUC in CD-1 mouse at 10 mg/kg, po
Assay type: ADME, organism-based
Conditions: in vivo

>  <Smiles code>
CCOc1cc2ncc(-c3cc(N)nc(F)c3)n2cc1S(=O)(=O)C(C)C

>  <AUC, µM·h>
7.95

$$$$

* * *

Assay: Cmax in Wistar rat at 20 mg/kg, po
Format: ADME, organism-based
Design: dose 20 mg/kg, route oral
Conditions: in vivo
Readout: Cmax (µM)

>  <Smiles code>
CCOc1cc2ncc(-c3cc(N)nc(F)c3)n2cc1S(=O)(=O)C(C)C

>  <Readout>
Cmax

>  <Reported measurement>
14.2

$$$$

* * *

Experiment: AUC in Beagle dog at 2 mg/kg, po
Type: ADME, organism-based, Canis lupus familiaris
Details: in vivo
Readout: AUC (µM·h)

>  <Smiles code>
CCOc1cc2ncc(-c3cc(N)nc(F)c3)n2cc1S(=O)(=O)C(C)C

>  <Readout>
AUC

>  <Reported measurement>
15.4

$$$$
